Listed molecules paired with reported max response
Tgt: Phosphatidylinositol 5-phosphate 4-kinase type-2 alpha (Homo sapiens) (UniProt P48426)
Sequence (P48426 whole entry, looked up): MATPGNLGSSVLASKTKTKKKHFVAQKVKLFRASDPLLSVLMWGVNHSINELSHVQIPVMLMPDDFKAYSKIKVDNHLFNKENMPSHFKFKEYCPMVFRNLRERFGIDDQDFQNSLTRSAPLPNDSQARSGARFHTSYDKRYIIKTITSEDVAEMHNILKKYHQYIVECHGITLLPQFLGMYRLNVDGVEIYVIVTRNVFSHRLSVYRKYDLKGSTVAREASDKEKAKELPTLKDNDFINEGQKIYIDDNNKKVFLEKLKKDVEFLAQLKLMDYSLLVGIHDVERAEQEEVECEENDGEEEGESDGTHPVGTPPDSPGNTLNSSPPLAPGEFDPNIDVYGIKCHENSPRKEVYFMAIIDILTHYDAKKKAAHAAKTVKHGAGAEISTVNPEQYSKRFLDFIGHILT
Assay Overview: qHTS for Inhibitors of phosphatidylinositol 5-phosphate 4-kinase (PI5P4K); also: value at the top dose of about 77 µM; % is scaled to controls: 0 for no effect and ±100 for the full control effect
Condition Summary: PI5P4Kalpha enzyme, ADP-Glo luminescence, 60 min; active compounds read low
Out of some 330,000 compounds screened, about 4,100 (1.2%) were called active. Inconclusive results (about 2%) are left out. The full list was thinned out, with actives kept by preference.

Check out these entries, answers already filled in.
NC(=O)CCN1CCN(S(=O)(=O)/C=C/c2ccccc2)CC1 = 0.132% (inactive)
O=C1CSC(=S)N1c1ccc(O)cc1 = -3.72% (inactive)
O=C(NCc1cccc(C(F)(F)F)c1)c1ccc2sc(COCCO)nc2c1 = -7.68% (inactive)
CCOC(=O)[C@H]1Nc2ccc(Cl)cc2[C@@H]2[C@H]1C1CC(c3ccccc31)N2C(=O)OCc1ccccc1 (stereo partly specified) = 19.9% (inactive)
O=C(NC1=CC(=O)c2ccccc2C1=O)c1ccccc1 = -2.02% (inactive)

Q: Request the reported max response associated with O=C(Nc1ccccc1)c1ccccc1Br
A: 2.77% (inactive)

Q: How about this molecule: O=c1cc(CN2CCN(S(=O)(=O)/C=C/c3ccccc3)CC2)c2ccc(O)cc2o1
A: -55% (active)

Each recorded value in this set is attributed to PubChem BioAssay AID652105.
